Target or system SENP7 (Homo sapiens); recorded quantity IC50.
Readout Name: IC50 (nM)

INSERT INTO measurements (compound_structure, endpoint_result) VALUES
  ('Nc1ccc2cc(S(=O)(=O)O)cc(S(=O)(=O)O)c2c1N=Nc1ccc(S(=O)(=O)O)cc1', 1900);

I: Cc1cc(N)ccc1/N=N/c1cc(S(=O)(=O)O)c2cccc(S(=O)(=O)O)c2c1
II: Nc1c(N=Nc2ccccc2)cc(S(=O)(=O)O)c2ccccc12
Query: Which value of IC50 is greater, the one for I or the one for II ? // respond with label for picked entry
Response: II
(II: 2800 nM, I: 1900 nM)

---

Target Of Assay: SENP2 (Homo sapiens, UniProt Q9HC62)
Sequence (Q9HC62 364-589): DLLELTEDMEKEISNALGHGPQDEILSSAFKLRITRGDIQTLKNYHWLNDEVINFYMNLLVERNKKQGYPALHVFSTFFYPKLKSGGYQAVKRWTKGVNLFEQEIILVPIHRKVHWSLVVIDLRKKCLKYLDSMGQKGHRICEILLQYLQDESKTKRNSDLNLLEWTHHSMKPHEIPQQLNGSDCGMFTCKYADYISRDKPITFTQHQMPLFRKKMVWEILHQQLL
pIC50: −log10 of the molar value.
Readout Name: pIC50

Query: What pIC50 appears in the records for this molecule with SENP2 (Homo sapiens, UniProt Q9HC62)? Cc1cc(N)ccc1/N=N/c1cc(S(=O)(=O)O)c2cccc(S(=O)(=O)O)c2c1 [SPI-07]
Response: < 4.22
